This section presents compounds with their documented Activity values.
- Test system: Rattus norvegicus
- assay-overview: Activity at AChE in Charles Foster rat prefrontal cortex assessed as substrate hydrolyzed per mg of protein at 5 mg/kg, po for 8 days by Ellman's method (reference value: 45.83 +/- 0.94 mol/min)
- Assay type: functional
Unit mol/min implied. Number only.

In the examples that follow, each entry is paired with its recorded Activity.
O=C(NN=C(c1ccccc1)c1ccccc1)Nc1ccncc1 ... 32.67
O=C(N/N=C/c1ccc(O)cc1O)Nc1ccncc1 ... 36.17
COc1cc2c(cc1OC)C(=O)C(CC1CCN(Cc3ccccc3)CC1)C2 (stereo unspecified) [DONEPEZIL] ... 31.25
O=C(N/N=C/c1ccccc1)Nc1ccncc1 ... 42.03
C/C(=N\NC(=O)Nc1ccncc1)c1ccc(O)cc1 ... 35.5

Per the record, "COc1cc(/C=N/NC(=O)Nc2ccncc2)ccc1O" has Activity of 36.62

Per the record, "NC(=O)Nc1ccncc1" has Activity of 43

Per the record, "COc1ccc(/C=N/NC(=O)Nc2ccncc2)cc1OC" has Activity of 36.87

Per the record, "NNC(=O)Nc1ccncc1" has Activity of 42.33

Per the record, "O=C(N/N=C/c1ccccc1O)Nc1ccncc1" has Activity of 39.33

Per the record, "COc1ccc(/C=N/NC(=O)Nc2ccncc2)cc1" has Activity of 39.5

* * *

- target-under-test: Cholinesterase (Homo sapiens)
- Sequence (P06276 whole entry): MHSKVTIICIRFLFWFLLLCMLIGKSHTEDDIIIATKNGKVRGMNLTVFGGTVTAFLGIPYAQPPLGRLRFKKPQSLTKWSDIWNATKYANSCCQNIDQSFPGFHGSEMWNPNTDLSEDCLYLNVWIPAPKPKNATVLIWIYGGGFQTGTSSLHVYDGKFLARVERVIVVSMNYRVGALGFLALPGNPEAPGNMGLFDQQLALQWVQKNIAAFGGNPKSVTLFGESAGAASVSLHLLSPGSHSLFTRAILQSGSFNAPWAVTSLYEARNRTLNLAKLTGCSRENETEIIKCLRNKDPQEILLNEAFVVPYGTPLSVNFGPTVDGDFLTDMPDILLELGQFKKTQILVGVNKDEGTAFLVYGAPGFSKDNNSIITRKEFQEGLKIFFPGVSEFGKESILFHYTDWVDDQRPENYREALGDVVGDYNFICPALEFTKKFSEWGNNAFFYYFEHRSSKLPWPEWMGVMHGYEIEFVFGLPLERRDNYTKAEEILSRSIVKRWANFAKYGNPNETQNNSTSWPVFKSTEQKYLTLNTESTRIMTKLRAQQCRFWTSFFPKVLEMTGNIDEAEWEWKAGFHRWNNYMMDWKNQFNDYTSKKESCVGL
- assay-overview: Non competitive inhibition of human serum BChE using butyrylthiocholine iodide as substrate by Lineweaver-Burk plot analysis
This section presents compounds with their documented Ki values.
Unit µM implied. Number only.

In the examples that follow, each entry is paired with its recorded Ki.
O=C(N/N=C/c1ccccc1O)Nc1ccncc1 ... 212
O=C(N/N=C/c1ccc(O)cc1O)Nc1ccncc1 ... 72.7

Kindly consider the entry below.
// Ki (Cholinesterase (Homo sapiens)) for "COc1cc(/C=N/NC(=O)Nc2ccncc2)ccc1O" = 446
